molecular target: Immunoglobulin lambda variable 6-57 (Homo sapiens, UniProt P01721, F49Y/T46L); test: Stabilization of AL patient derived fluorescein-labeled IGLV6-57 T46L/F49Y mutant measured after 24 hrs by proteolysis coupled-fluorescence polarization assay
Sequence (P01721 whole entry, looked up, stated change not applied): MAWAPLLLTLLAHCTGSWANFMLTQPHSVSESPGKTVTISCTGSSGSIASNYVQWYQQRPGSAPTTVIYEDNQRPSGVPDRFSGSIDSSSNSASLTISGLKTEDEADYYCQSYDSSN
Hi! Just check whether EC50 is below 0.7 µM. Below gives yes (1), equal or above gives no (0).

Is it true that EC50 reported for CCN(CC)c1ccc2c(C)c(CCOC(=O)NCCc3cccnc3)c(=O)oc2c1 is less than 0.7 µM?
no (0)

Record CCN(CC)c1ccc2c(C)c(CCN3C(=O)NC4(CCN(C(=O)c5ccc[nH]c5=O)C4)C3=O)c(=O)oc2c1 (stereo not drawn) : is its EC50 strictly below 0.7 µM?
no (0)

Check if EC50 falls below 0.7 µM for CCN(CC)c1ccc2c(C)c(CCN3CC4(CCN(c5ncccn5)CC4)NC3=O)c(=O)oc2c1 .
yes (1)

Take the compound CCN(CC)c1ccc2c(C)c(CCN3C(=O)NC4(CCN(S(=O)(=O)c5ccccc5)C4)C3=O)c(=O)oc2c1 (stereo not drawn) and say whether its EC50 is less than 0.7 µM.
yes (1)

Hello, I'm reviewing records and need to know if EC50 of CCN(CC)c1ccc2c(C)c(CCOC(=O)NCc3ccccc3)c(=O)oc2c1 is below 0.7 µM. Could you check?
yes (1)

Is the reported EC50 for CCN(CC)c1ccc2c(C)c(CCOC(=O)N(C)CCc3cccnc3)c(=O)oc2c1 strictly below 0.7 µM?
no (0)

Here's an entry: CCN(CC)c1ccc2c(C)c(CCN3C(=O)NC4(CCN(c5nccn6ncnc56)CC4)C3=O)c(=O)oc2c1 . Is its EC50 below 0.7 µM?
yes (1)

Determine if Cc1cc(=O)oc2cc(OCC(C)c3ccccc3)ccc12 (stereo not drawn) shows EC50 strictly lower than 0.7 µM.
yes (1)

Would you kindly verify if EC50 of CCN(CC)c1ccc2c(C)c(CCN3C(=O)NC4(CCN(C(=O)c5c[nH]cn5)C4)C3=O)c(=O)oc2c1 (stereo not drawn) is strictly less than 0.7 µM?
no (0)

Dear reviewer, please state whether CCN(CC)c1ccc2c(C)c(CCN3C(=O)NC4(CCN(c5ncccn5)CC4)C3=O)c(=O)oc2c1 has EC50 strictly beneath 0.7 µM.
yes (1)

Answer whether the compound CCN(CC)c1ccc2c(C)c(CCN3CC4(CCN(c5nccn6ccnc56)CC4)NC3=O)c(=O)oc2c1 has EC50 strictly less than 0.7 µM
yes (1)

Report whether reported EC50 is lower than 0.7 µM (strictly) for CCN(CC)c1ccc2c(C)c(CCOC(=O)NCc3cncc(NC(C)=O)c3)c(=O)oc2c1
no (0)
